- target-or-system: recombinant soluble homotrimeric HA of A/Solomon Islands/3/06 (H1N1) (Influenza A virus A/Solomon Islands/3/2006(H1N1))
- measurement-description: HA microarray, BCC supernatant
- condition-set: remark: other sources report otherwise
metric-name: Trimeric HA Binding: RLU (RLU)
Numeric only. Scale: RLU

Using the record for TCN-554 (5277_M05) (antibody, V domains shown) VH: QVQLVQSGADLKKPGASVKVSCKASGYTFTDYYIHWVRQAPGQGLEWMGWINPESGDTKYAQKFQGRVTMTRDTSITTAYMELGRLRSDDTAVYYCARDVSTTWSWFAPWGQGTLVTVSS VL: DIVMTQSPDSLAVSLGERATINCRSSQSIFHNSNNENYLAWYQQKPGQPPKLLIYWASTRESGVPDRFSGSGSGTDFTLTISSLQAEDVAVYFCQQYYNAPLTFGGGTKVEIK , report its Trimeric HA Binding: RLU. 115
